molecular target: human NEP (Homo sapiens); construct: purchased R&D Systems, Minneapolis, Minn; 1182-ZN; experiment: In vitro enzyme inhibition assay at human NEP (fluorogenic peptide substrate); assay type: biochemical; details: recombinant human NEP; substrate Mca-D-Arg-Arg-Leu-Dap-(Dnp)-OH 10 μM; 37° C.; values given as ranges; read-out: pKi values at human NEP (converted)
Sequence (P08473 whole entry): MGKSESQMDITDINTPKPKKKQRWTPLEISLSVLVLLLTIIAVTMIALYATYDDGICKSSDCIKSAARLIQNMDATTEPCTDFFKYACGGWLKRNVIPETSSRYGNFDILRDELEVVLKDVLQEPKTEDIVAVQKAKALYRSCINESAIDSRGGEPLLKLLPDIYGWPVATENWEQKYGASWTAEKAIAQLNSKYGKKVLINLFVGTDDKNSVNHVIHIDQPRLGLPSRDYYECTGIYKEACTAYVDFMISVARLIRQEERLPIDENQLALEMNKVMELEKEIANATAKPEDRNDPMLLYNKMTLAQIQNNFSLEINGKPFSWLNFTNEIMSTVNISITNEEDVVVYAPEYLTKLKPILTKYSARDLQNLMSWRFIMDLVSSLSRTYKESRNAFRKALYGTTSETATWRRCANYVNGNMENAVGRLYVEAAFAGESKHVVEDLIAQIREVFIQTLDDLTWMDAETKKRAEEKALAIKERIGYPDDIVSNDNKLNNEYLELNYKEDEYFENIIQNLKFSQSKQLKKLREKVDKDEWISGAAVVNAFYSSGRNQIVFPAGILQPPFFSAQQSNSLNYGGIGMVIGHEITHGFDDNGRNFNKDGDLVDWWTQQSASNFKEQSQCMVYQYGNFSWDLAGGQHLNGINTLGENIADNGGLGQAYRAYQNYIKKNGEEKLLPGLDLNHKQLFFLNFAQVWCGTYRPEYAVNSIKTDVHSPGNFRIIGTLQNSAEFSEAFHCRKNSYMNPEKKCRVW
OBSERVED_PROPERTY: Ki

Request: Ki lookup needed for COc1c(F)c(F)c(Cn2nc(C(=O)N[C@H](Cc3ccccc3Cl)[C@@H](O)C(=O)O)cc2C(C)=O)c(F)c1F [Example 2-71] , thanks.
Response: ≤ 1 nM

Request: Ki lookup needed for O=C(N[C@H](Cc1ccccc1Cl)[C@@H](O)C(=O)O)c1cc(-c2ccccc2O)[nH]n1 [Example 2-50] , thanks.
Response: 12.6 to 100 nM

Request: Ki lookup needed for CCOc1ncc(Cn2nc(C(=O)N[C@H](Cc3ccccc3Cl)[C@@H](O)C(=O)O)cc2C(=O)O)cn1 [Example 2-62] , thanks.
Response: ≤ 1 nM

Request: Ki lookup needed for Cc1cc(Cn2nc(C(=O)N[C@H](Cc3ccccc3Cl)[C@@H](O)C(=O)O)cc2C(=O)O)no1 [Example 2-61] , thanks.
Response: 1.26 to 10 nM
